Each recorded value in this set is attributed to patent US20200385371A1.

Overview of recorded pIC50 for various compounds
Subject of test: WDR5 (Homo sapiens, UniProt P61964)
pIC50: −log10 of the molar value.

Chemical smiles: CC(C)OC(=O)N1CC=C(c2c(F)cc(N3C[C@@H](C)N(C)[C@@H](C)C3)c(NC(=O)c3c[nH]c(=O)cc3C(F)(F)F)c2F)C1
pIC50: 7.94
//
Chemical smiles: COc1cnc(N2CC=C(c3c(F)cc(N4C[C@@H](C)N(C)[C@@H](C)C4)c(NC(=O)c4c[nH]c(=O)cc4C(F)(F)F)c3F)CC2)nc1
pIC50: 7.77
//
Chemical smiles: C[C@@H]1CN(c2cc(F)c(C3=CCN(c4ncc(F)cn4)CC3)c(F)c2NC(=O)c2c[nH]c(=O)cc2C(F)(F)F)C[C@H](C)N1C
pIC50: 7.86
//
Chemical smiles: C[C@@H]1CN(c2cc(F)c(-c3cnc(N4CCC(F)(F)CC4)nc3)c(F)c2NC(=O)c2c[nH]c(=O)cc2C(F)(F)F)C[C@H](C)N1C
pIC50: 7.93
//
Chemical smiles: C[C@@H]1CN(c2cc(F)c(-c3cnc(N4C[C@H](C)O[C@@H](C)C4)nc3)c(F)c2NC(=O)c2c[nH]c(=O)cc2C(F)F)C[C@H](C)N1C
pIC50: 7.92
//
Chemical smiles: CC(C)[C@H]1CN(c2ncc(-c3c(F)cc(N4CCN(C)[C@@H](C)C4)c(NC(=O)c4c[nH]c(=O)cc4C(F)(F)F)c3F)cn2)CCO1
pIC50: 7.93
//
Chemical smiles: C[C@H]1CN(c2cc(F)c(C3=CCN(c4ncc(F)cn4)CC3)c(F)c2NC(=O)c2c[nH]c(=O)cc2C(F)(F)F)CCN1C
pIC50: 7.80
//
Chemical smiles: C[C@H]1CN(c2ncc(-c3c(F)cc(N4CCN(C)[C@@H](C)C4)c(NC(=O)c4cn(C)c(=O)cc4C(F)(F)F)c3F)cn2)C[C@H](C)O1
pIC50: 7.82
//
Chemical smiles: C[C@@H]1CN(c2cc(F)c(-c3cnc(N4CC5CCC(C4)O5)nc3)c(F)c2NC(=O)c2c[nH]c(=O)cc2C(F)F)C[C@H](C)N1C
pIC50: 7.81
//
Chemical smiles: C[C@@H]1CN(c2cc(F)c(-c3ccc(C(=O)NC(C)(C)CC(C)(C)C)c(F)c3F)c(F)c2NC(=O)c2c[nH]c(=O)cc2C(F)(F)F)C[C@H](C)N1C
pIC50: 7.46
//
Chemical smiles: CC(C)OC(=O)N1CCC=C(c2c(F)cc(N3C[C@@H](C)N(C)[C@@H](C)C3)c(NC(=O)c3c[nH]c(=O)cc3C(F)(F)F)c2F)C1
pIC50: 7.84
//
Chemical smiles: C[C@@H]1CN(c2ncc(-c3c(F)cc(N4CCN(C)[C@@H](C)C4)c(NC(=O)c4c[nH]c(=O)cc4C(F)F)c3F)cn2)CCO1
pIC50: 8.06
